B1: LINE1-mini (parent)
chain: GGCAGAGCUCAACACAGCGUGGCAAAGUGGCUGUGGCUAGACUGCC

variants of: B1; test: self-cleavage, relative activity (ratio to wild type); higher = more cleavage; in vitro, sequencing; the parent is a self-cleaving ribozyme
# key: entry, value: self-cleavage
readout type: self-cleavage

[[record]]
sequence_data = "CGCAGAGCUCAACACAGCGUGGCAAAGUGGCUGUGGCUCGACUGCC [G1C A39C]"
reported_measurement = 0.04

[[record]]
sequence_data = "GGCAGAGCUCAACACAGCGUGGCAAAGUGGCUGUGGAUAGCCUGCC [C37A A41C]"
reported_measurement = 0.03

[[record]]
sequence_data = "GGCAGAGCUCAACACAGCGUGGCAAAGUGACUGUGGCUAAACUGCC [G30A G40A]"
reported_measurement = 0.19

[[record]]
sequence_data = "GGCAGAGCUCAACACAGCGUGGCAAAGGGUCUGUGGCUAGACUGCC [U28G G30U]"
reported_measurement = 0.77

[[record]]
sequence_data = "GGCAGAGCUCAACAGAGCUUGGCAAAGUGGCUGUGGCUAGACUGCC [C15G G19U]"
reported_measurement = 0.03

[[record]]
sequence_data = "GGCAGAGCUCAACACGGCGUGGCAAAGUGGCUGUAGCUAGACUGCC [A16G G35A]"
reported_measurement = 0.03

[[record]]
sequence_data = "GGCAGAGCUCAACACAGCGUGGCAAAGUGGAUCUGGCUAGACUGCC [C31A G33C]"
reported_measurement = 0.1

[[record]]
sequence_data = "GGCAGAGCUCAACACAGCGUGGCAAAGUGGCCGUGGCUCGACUGCC [U32C A39C]"
reported_measurement = 0.08

[[record]]
sequence_data = "GGCAGAGCUCGACACAGCGUGACAAAGUGGCUGUGGCUAGACUGCC [A11G G22A]"
reported_measurement = 0.03

[[record]]
sequence_data = "GGCAGAGCUCCACACAGAGUGGCAAAGUGGCUGUGGCUAGACUGCC [A11C C18A]"
reported_measurement = 0.02

[[record]]
sequence_data = "GGCAGAGCUCAACACAGCGUGGCAGAGUGGCUGUAGCUAGACUGCC [A25G G35A]"
reported_measurement = 0.11

[[record]]
sequence_data = "GGAAGAGCUCAAAACAGCGUGGCAAAGUGGCUGUGGCUAGACUGCC [C3A C13A]"
reported_measurement = 0.25

[[record]]
sequence_data = "GGCAGAGCUCAACACAGCGCGGCAAAGUGGCGGUGGCUAGACUGCC [U20C U32G]"
reported_measurement = 0.04

[[record]]
sequence_data = "GGCAGAGCUCAACACGGCGUGGCAAAGUGGCUGUGGCUAGACUGCG [A16G C46G]"
reported_measurement = 0.68

[[record]]
sequence_data = "GGCAGAGCUCAACACAGCGUGGCAAAGUGGCUAUGGCUAGACGGCC [G33A U43G]"
reported_measurement = 0.13

[[record]]
sequence_data = "GGCAGAGCUCAACACAGCGAGGCAAAGUGGCUGUGGCUAGACUGCU [U20A C46U]"
reported_measurement = 0.65

[[record]]
sequence_data = "GGCAGAGCUCAACACAGCGUGGCAAAGUGGCUAUGGCAAGACUGCC [G33A U38A]"
reported_measurement = 0.13

[[record]]
sequence_data = "GGCAGAGCUCAACACAGCGUGGCAAAGUGGCUGUGGCUAGACGUCC [U43G G44U]"
reported_measurement = 0.25

[[record]]
sequence_data = "GGCAGAGCUCAACACAGCGUGGCACAGUGGCUGCGGCUAGACUGCC [A25C U34C]"
reported_measurement = 0.08

[[record]]
sequence_data = "GACAGAUCUCAACACAGCGUGGCAAAGUGGCUGUGGCUAGACUGCC [G2A G7U]"
reported_measurement = 0.17

[[record]]
sequence_data = "GGCAGAGCUGAACACAGCGUGGCAAGGUGGCUGUGGCUAGACUGCC [C10G A26G]"
reported_measurement = 0.12

[[record]]
sequence_data = "GGCAGAGCUCAACACGGCUUGGCAAAGUGGCUGUGGCUAGACUGCC [A16G G19U]"
reported_measurement = 0.47

[[record]]
sequence_data = "GGCAGACCUCAACACAGCGUGACAAAGUGGCUGUGGCUAGACUGCC [G7C G22A]"
reported_measurement = 0.11

[[record]]
sequence_data = "GGCAAAACUCAACACAGCGUGGCAAAGUGGCUGUGGCUAGACUGCC [G5A G7A]"
reported_measurement = 0.35

[[record]]
sequence_data = "GGCAGAGCUCAACAAAGCGUGGCAAAGUGGCUGUGGCUAGAAUGCC [C15A C42A]"
reported_measurement = 0.06

[[record]]
sequence_data = "GGCAGAUCUCAACACAGCGUGGCAAAGUGGCUGUGGCUAGACUUCC [G7U G44U]"
reported_measurement = 0.2

[[record]]
sequence_data = "CGCAGAGCUGAACACAGCGUGGCAAAGUGGCUGUGGCUAGACUGCC [G1C C10G]"
reported_measurement = 0.03

[[record]]
sequence_data = "GGCAGAGCUCAACACAGCGCGGCAAAGUGGUUGUGGCUAGACUGCC [U20C C31U]"
reported_measurement = 0.39

[[record]]
sequence_data = "GGCAGAGCUCAACACAGCGUGGCAAAGAGGCUGUGGCCAGACUGCC [U28A U38C]"
reported_measurement = 0.38

[[record]]
sequence_data = "GGCAGAGCUGAACACAGCGUUGCAAAGUGGCUGUGGCUAGACUGCC [C10G G21U]"
reported_measurement = 0.14

[[record]]
sequence_data = "GGCAGAGCUCAACACAGCGUGGCGAAGUGGCUGUUGCUAGACUGCC [A24G G35U]"
reported_measurement = 0.13

[[record]]
sequence_data = "GGCAGAGCUCAACACAGCGGGGCAUAGUGGCUGUGGCUAGACUGCC [U20G A25U]"
reported_measurement = 1.21

[[record]]
sequence_data = "GGCAGAGCUCAACAUAGCGUGGCAAAGUGGCUGUGGCUAGACUGCC [C15U]"
reported_measurement = 1.03

[[record]]
sequence_data = "GGCAGAGCUCAACACAGCAUGGCAACGUGGCUGUGGCUAGACUGCC [G19A A26C]"
reported_measurement = 0.52

[[record]]
sequence_data = "GGCAGAGCCCAACACAGCGUGGCAAAGUGGCUGUGGCUGGACUGCC [U9C A39G]"
reported_measurement = 0.02

[[record]]
sequence_data = "GGCAGAGCUCGACACAGCGUGGCAAAGUGUCUGUGGCUAGACUGCC [A11G G30U]"
reported_measurement = 0.04

[[record]]
sequence_data = "UGCAGAGCUCAACACAGCGUGGCAAAGUCGCUGUGGCUAGACUGCC [G1U G29C]"
reported_measurement = 0.2

[[record]]
sequence_data = "GGAAGAGCUCAACACAUCGUGGCAAAGUGGCUGUGGCUAGACUGCC [C3A G17U]"
reported_measurement = 0.2

[[record]]
sequence_data = "GGCAGAGCUCAACACAGCGUCGCAAAGUGUCUGUGGCUAGACUGCC [G21C G30U]"
reported_measurement = 1.1

[[record]]
sequence_data = "GGCAGUGCUCAACACAGCGUGGCAAAGUGGCUGUGGCUUGACUGCC [A6U A39U]"
reported_measurement = 0.35

[[record]]
sequence_data = "GGCAGAGCUCAACACAGCGUGGCACAGUGGCUGUGGGUAGACUGCC [A25C C37G]"
reported_measurement = 0.06

[[record]]
sequence_data = "GCCAGAGCUCAACACAGCGUGGCACAGUGGCUGUGGCUAGACUGCC [G2C A25C]"
reported_measurement = 0.15

[[record]]
sequence_data = "GGCAGAGCUAAACACAGCGUGGCAAAGUGGCUGUGGCGAGACUGCC [C10A U38G]"
reported_measurement = 0.05

[[record]]
sequence_data = "GGCAGAGCUCAAAACAGCGUGGCAAAGUGGCUGUGGCUAGUCUGCC [C13A A41U]"
reported_measurement = 0.14

[[record]]
sequence_data = "GGCAGAGCUCCACACAGCGUGGCAAAGUGGCUGUGGCUAAACUGCC [A11C G40A]"
reported_measurement = 0.02

[[record]]
sequence_data = "GGCAGAGCUCAACACAGCGUGGCAAGGUGGCUGUGGCUAGACUGCG [A26G C46G]"
reported_measurement = 1.53

